- Tested on: SK-N-SH neuroblastoma cells
- method_description: Anti-proliferative assay, cell-titre luminescent reagent, 72 h (GVK-BIO)
- Assay type: cell-based
- particulars: Homo sapiens, SK-N-SH, 30, 10, 3, 1, 0.3 and 0.1 μM, nonlinear regression (Table 5)
quantity_name: IC50

Please give the measured IC50 for this compound: Cc1c(C)n(CCCN2CCN(C)CC2)c2ccc(CN3CCN(CCc4ccccc4)CC3)cc12 [Compound 4117]
4.6 µM

Another compound to look at: CN(C)CCCn1ccc2cc(Oc3ccc(C(=O)Nc4cccc(F)c4)cc3)ccc21 [Compound 4091]
9.7 µM

Another compound to look at: Cc1c(C)n(CCCN(C)C)c2ccc(Cc3ccc(C(=O)Nc4ccc(F)cc4)cc3)cc12 [Compound 4082]
4.8 µM

Another compound to look at: COc1ccc(NC(=O)c2ccc(Oc3ccc4c(ccn4CCCN(C)C)c3)cc2)cc1 [Compound 4089]
4.4 µM

----------
- Test system: SK-N-SH neuroblastoma cells
- method_description: Anti-proliferative assay, cell-titre luminescent reagent, 72 h (GVK-BIO)
- Assay type: cell-based
- particulars: Homo sapiens, SK-N-SH, 30, 10, 3, 1, 0.3 and 0.1 μM, nonlinear regression (Table 5)
- Description: The ability of compounds 4001, 4002, 4008, 4010, 4011, 4013-4015, 4018, 4026, 4045-4113 and 4115-4127 to inhibit the proliferation of cancer cells representative of neuroblastoma, melanoma, prostate cancer, colorectal cancer, non-small cell lung carcinoma, and triple negative breast cancer was assessed. […] Luminescence was captured using an EnVision multilabel reader and the data for each analogue concentration compared against no treatment control. […]
Reported IC50 values are given for each entry in this list.
# value in µM; strip the unit string

Worked examples, 4 compounds total:
Please give the measured IC50 for this compound: COc1cccc(NC(=O)c2cccc(Oc3ccc4c(c3)c(C)c(C)n4CCCN(C)C)c2)c1
5.2

Another compound to look at: COc1ccc(NC(=O)c2ccc(Oc3ccc4c(c3)c(C)c(C)n4CCCN(C)C)cc2)cc1
1.8

Another compound to look at: COc1cccc(NC(=O)c2ccc(Cc3ccc4c(c3)c(C)c(C)n4CCCN(C)C)cc2)c1
5.7

Another compound to look at: Cc1c(C)n(CCCN(C)C)c2ccc(CN3CCN(CCc4ccc(F)cc4)CC3)cc12
3.7

Others:
Please give the measured IC50 for this compound: Cc1c(C)n(CCCN(C)C)c2ccc(Cc3ccc(C(=O)Nc4ccc5c(c4)OCO5)cc3)cc12
10.6

----------
- Test system: CaCo2 colorectal cancer cells
- method_description: Anti-proliferative assay, cell-titre luminescent reagent, 72 h (GVK-BIO)
- Assay type: cell-based
- particulars: Homo sapiens, Caco-2, 72 h, 30, 3, 0.3 and 0.03 μM, linear regression (Tables 2-4)
Output Fulfilled for records whose IC50 is lower than 4 µM, Not fulfilled for records at or above 4 µM.

As a guide, the following entries are already answered.
Bench note: check whether COc1cccc(CCN2CCN(C(=O)c3ccc4c(c3)c(C)c(C)n4CCCN3CCN(C)CC3)CC2)c1 shows IC50 below 4 µM
Not fulfilled

Another compound to look at: Cc1c(C)n(CCCN(C)C)c2ccc(Nc3cccc(C(=O)Nc4ccc5c(c4)OCO5)c3)cc12
Fulfilled

Another compound to look at: CN(C)CCCn1ccc2cc(Cc3ccc(C(=O)Nc4cccc(F)c4)cc3)ccc21
Fulfilled

Another compound to look at: COc1ccc(NC(=O)c2cccc(Oc3ccc4c(c3)c(C)c(C)n4CCCN(C)C)c2)cc1
Not fulfilled

Another compound to look at: COc1cccc(NC(=O)c2ccc(Nc3ccc4c(ccn4CCCN(C)C)c3)cc2)c1
Not fulfilled

Attention now shifts to the item below.
Bench note: check whether Cc1c(C)n(CCCN(C)C)c2ccc(Nc3ccc(C(=O)Nc4cccc(F)c4)cc3)cc12 shows IC50 below 4 µM
Fulfilled
